experimental-target: T1, recombinant human CD3 epsilon/delta heterodimer (human, UniProt P07766 23-126; P04234 22-105)
T1 construct: Recombinant protein in solution (200-50 nM) in the Octet assay; also called hCD3 E/D; human CD3E/D
T1 sequence (P07766 23-126, stated change not applied, chain 1 of 2): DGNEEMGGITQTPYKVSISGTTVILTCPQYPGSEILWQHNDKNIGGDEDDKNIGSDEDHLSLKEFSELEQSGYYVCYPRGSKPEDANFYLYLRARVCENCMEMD
T1 sequence (P04234 22-105, stated change not applied, chain 2 of 2): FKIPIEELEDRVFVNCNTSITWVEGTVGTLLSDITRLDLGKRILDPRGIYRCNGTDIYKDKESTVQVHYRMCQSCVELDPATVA
method-summary: Octet BLI, mAb on FAB2G sensor, hCD3 E/D 200-50 nM; R^2 0.96
A collection of binders and their measured koff

For orientation, consider the following solved cases.
ABL-CD3-33 (antibody, V domains shown, Chimeric hybridoma mAb: human V, CH1, upper hinge; mouse middle hinge, CH2, CH3) VH: EVQLVESGGGLVKPGGSLRLSCAASGFTFSSYSMNWVRQAPGKGLEWVSSISRSSSYIYYADSVKGRFTISRDNAKNSLYLQMNSLRAEDTAVYYCAREPPTLGMDYWGQGTLVTVSS VL: NFMLTQPHSVSESPGKTVTISCTRSSGSIASNYVQWYQQRPGSSPTTVIYEDNQRPSGVPDRFSGSIDSSSNSASLTISGLKTEDEADYYCQSYYNSNRVFGGGTKLTVL    0.0206 s⁻¹
ABL-CD3-22 (antibody, V domains shown, Chimeric hybridoma mAb: human V, CH1, upper hinge; mouse middle hinge, CH2, CH3) VH: EVQLVESGGGLVQPGGSLRLSCAASGFTFSSYSMNWVRQAPGKGLEWVSYISSSSSTIYYADSVKGRFTISRDNAKNSLYLQMNSLRDEDTAVYYCARDGPVDYGMDVWGQGTTVTVSS VL: SYELTQPPSVSVSPGQTARITCSGDALPKQYTYWCQQKPGQAPVLVIYKDSERPSGIPERFSGSSSGTTVTLTISGVQAEDEADYYCQSADSSGTYRVFGGGTKLTVL    0.00513 s⁻¹
ABL-CD3-13 (antibody, V domains shown, Chimeric hybridoma mAb: human V, CH1, upper hinge; mouse middle hinge, CH2, CH3) VH: EVQLVESGGGLVQPGGSLRLSCAASGFTFSNYWMSWVRQAPGKGLEWVANIKEDGSEKYYVDSVKGRFTISRDNAKNSLYLQMNSLTAEDTSVYYCARERRTGYFDYWGQGTLVTVSS VL: DIQMTQSPSTLSASVGDRVTITCRASQSISNWLAWYQQKPGKAPNLLIYKASSLESGVPSRFSGSGSGTEFTLTISSLQPDDFANYYCQQYKSYSWTFGQGTKVEIK    0.000728 s⁻¹

Now examine the next entry.
**Q:** Consider the binder ABL-CD3-27 (antibody, V domains shown, Chimeric hybridoma mAb: human V, CH1, upper hinge; mouse middle hinge, CH2, CH3) VH: QVQLVQSGAEVKKPGASLKVSCKASGYTFTSYYMHWVRQAPGQGLEWMGIINPSNGNTISAQKFQGRVTMTRDTSTSTVYMEMSSLRSEDTAVYYCVRCWGYYVMDVWGQGTTVTVSS VL: QTVVTQEPSFSVSPGGTVTLTCGLNSGSVSTSYYPSWYQQTPGQTPRTLIYSTNTRSSGVPDRFSGSILGNKAALTITGAQADDESDYYCVLYMGSGIWVFGGGTKLTVL and give its measured koff.
**A:** 0.000528 s⁻¹
